# testTarget: apical domain of CD71 (Screen 3: 'cynomolgus apical domain of human CD71') (cynomolgus (as paragraph 454 words it; ambiguous))
# assayExplanation: primary ELISA
measurementLabel: RLU (RLU)

{"binder": "CD71-binding FN3 domain SEQ ID NO: 311 (designed binder) MSLPAPKNLVVSRVTEDSARLSWTAPDAAFDSFEIGYWENAYKGEAIVLTVPGSERSYDLTGLKPGTEYVVFIGGVKGGSWSNPLSAIFTT", "testValue": "4.66e+06"}
{"binder": "CD71-binding FN3 domain SEQ ID NO: 314 (designed binder) MGSLPAPKNLVVSRVTEDSARLSWTAPDAAFDSFEIGYFENLYLGEAIVLTVPGSERSYDLTGLKPGTEYWVQIGGVKGGNWSAPLSAIFTT", "testValue": "5.25e+06"}
{"binder": "CD71-binding FN3 domain SEQ ID NO: 239 (designed binder) MSLPAPKNLVVSRVTEDSARLSWTAPDAAFDSFEIVYQENSAYGEAIVLTVPGSERSYDLTGLKPGTEYWVQIGGVKGGNWSAPLSAIFTT", "testValue": "5.4e+06"}
{"binder": "CD71-binding FN3 domain SEQ ID NO: 319 (designed binder) MSLPAPKNLVVSRVTEDSARLSWTAPGAAFDSFEIGYFENLYLGEAIVLTVPGSERSYDLTGLKPGTEYWVQIGGVKGGVWSVPLSAIFTT", "testValue": "4.57e+06"}
{"binder": "CD71-binding FN3 domain SEQ ID NO: 312 (designed binder) MSLPAPKNLVVSRVTEDSARLSWTAPDAAFDSFEIGYFENLYLGEAIVLTIPGSERSYDLTGLKPGTEYWVQIGGVKGGNWSAPLSAIFTT", "testValue": "5.31e+06"}
{"binder": "CD71-binding FN3 domain SEQ ID NO: 265 (designed binder) MSLPAPKNLVVSRVTEDSARLSWTAPDAAFDSFFIGYLEPQPPGEAISLYVPGSERSYDLTGLKPGTEYNVTIQGVKGGFPSDPLVAHFTT", "testValue": "6.76e+06"}
{"binder": "CD71-binding FN3 domain SEQ ID NO: 284 (designed binder) MSLPAPKNLVVSRVTEDSARLSWTAPDAAFDSFEIGYWENAYKGEAIVLTVPGSERSYDLTGLKPGTEYMVFIGGVKGGVWSVPLSAIFTT", "testValue": "4.41e+06"}
{"binder": "CD71-binding FN3 domain SEQ ID NO: 333 (designed binder) MSLPAPENLVVSRVTEDSARLSWTAPDAAFDSFFIGYLEPQPPGEAIALYVPGSERSYDLTGLKPGTEYNVTIQGVKGGFPSLPLVATFTT", "testValue": "6.2e+06"}
{"binder": "CD71-binding FN3 domain SEQ ID NO: 268 (designed binder) MSLPAPKNLVVSRVTEDSARLSWTAPDAAFDSFEIGYFENLYLGEAIVLTVPGSERSYDPTGLKPGTEYWVQIGGVKGGNWSAPLSAIFTT", "testValue": "5.8e+06"}
